Origin of values: PubChem BioAssay AID330

- Test system: P388 leukemia ip, CD2F1 mice, survival T/C
- Assay method text: NCI In Vivo Anticancer Drug Screen. Data for tumor model P388 Leukemia (intraperitoneal) in CD2F1 (CDF1) mice
- Stated conditions: endpoint: median survival time; dose: 200.0 mg/kg/injection; schedule: Q01DX009 (ip); vehicle: saline; higher = longer survival
- Description: The antitumor activity of compounds was measured in mice bearing transplantable tumors. Survival or tumor size were measured and the results are expressed as the measurement made in the treated group (T) divided by the measurement made in the vehicle treated control group (C). The tumor model used in this assay is P388 Leukemia (intraperitoneal) in CD2F1 (CDF1) mice
Toxic doses and inconclusive results are not listed.
Consider the following molecules; for each one, report its T/C.

Quick batch: T/C for everything below.
1. O=[N+]([O-])c1ccc(CSC(=S)Nc2ccc(Cl)c(Cl)c2)cc1
2. Cc1cc(NC(=S)SC(C)C)ccc1Cl
3. CC1C(C#N)C(=O)NC(=O)C1C#N (configuration not stated)
4. [Br][Rh][Br].[NH-]c1nc2ccc(Br)cc2s1.[NH-]c1nc2ccc(Br)cc2s1.[NH-]c1nc2ccc(Br)cc2s1.[NH-]c1nc2ccc(Br)cc2s1
5. c1ccc2c(c1)Nc1c(ccc3ccccc13)S2
6. COC(=O)c1ccc(SCCCN2CCOCC2)cc1

116 % of control
102 % of control
100 % of control
100 % of control
109 % of control
91 % of control
